Reported IC50 by item:
- test-system: KRAS G13D (Homo sapiens (Human), UniProt P01116+P62937, G13D)
- Sequence (P01116 other isoform, or with tags, fused parts or gaps G13D): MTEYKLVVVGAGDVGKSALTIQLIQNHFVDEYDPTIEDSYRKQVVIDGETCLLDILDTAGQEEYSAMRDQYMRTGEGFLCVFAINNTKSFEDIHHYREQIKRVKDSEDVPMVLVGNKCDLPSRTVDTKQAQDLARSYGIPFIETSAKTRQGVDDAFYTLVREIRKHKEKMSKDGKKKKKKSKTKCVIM
- Sequence (P62937 whole entry): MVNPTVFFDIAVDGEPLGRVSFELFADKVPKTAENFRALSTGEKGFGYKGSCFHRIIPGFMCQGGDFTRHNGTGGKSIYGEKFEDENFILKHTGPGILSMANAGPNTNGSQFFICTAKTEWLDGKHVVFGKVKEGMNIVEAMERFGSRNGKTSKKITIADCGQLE
- method: Ras-Raf disruption/FRET/MOA assay (BRAF RBD, Cyclophilin A)
- Format: biochemical
- conditions-used: read-out: KRAS G13D FRET data IC50

Answered cases to consult:
CCn1c(-c2cc(N3CCN(C)CC3)cnc2[C@H](C)OC)c2c3cc(ccc31)-c1csc(n1)C[C@H](NC(=O)[C@H](C(C)C)N(C)C(=O)[C@H]1CCCS1(=O)=O)C(=O)N1CCC[C@H](N1)C(=O)OCC(C)(C)C2 [Compound A439] | 1 to 10 µM
CCn1c(-c2cccnc2COC)c2c3cc(ccc31)-c1cc(O)cc(c1)C[C@H](NC(=O)[C@H](C(C)C)N(C)C(=O)OC1COC1)C(=O)N1CCC[C@H](N1)C(=O)OCC(C)(C)C2 [Compound A39] | 0.1 to 1 µM
CCn1c(-c2cnccc2COC)c2c3cc(ccc31)-c1cc(O)cc(c1)C[C@H](NC(=O)[C@H](C(C)C)N(C)C(=O)[C@H]1CCN(C(C)C)C1)C(=O)N1CCC[C@H](N1)C(=O)OCC(C)(C)C2 [Compound A41] | 0.01 to 0.1 µM
CCn1c(-c2cccnc2[C@H](C)OC)c2c3cc(ccc31)-c1cc(O)cc(c1)C[C@H](NC(=O)C1CCC3C1C3(F)F)C(=O)N1CCC[C@H](N1)C(=O)OCC(C)(C)C2 (some centres unmarked) [Compound A181] | 1 to 10 µM

Let us examine a further case.
Exercise: I have this compound here, CCn1c(-c2cccnc2[C@H](C)OC)c2c3cc(ccc31)-c1csc(n1)C[C@H](NC(=O)[C@H](C(C)C)N(C)C(=O)N1C[C@H](C)N(C)C[C@H]1C)C(=O)N1CCC[C@H](N1)C(=O)OCC(C)(C)C2 [Compound A300] , and I need its recorded IC50.
Key: 1 to 10 µM

---

Reported IC50 by item:
- test-system: KRAS G13C (Homo sapiens (Human), UniProt P01116+P62937, G13C)
- Sequence (P01116 other isoform, or with tags, fused parts or gaps G13C): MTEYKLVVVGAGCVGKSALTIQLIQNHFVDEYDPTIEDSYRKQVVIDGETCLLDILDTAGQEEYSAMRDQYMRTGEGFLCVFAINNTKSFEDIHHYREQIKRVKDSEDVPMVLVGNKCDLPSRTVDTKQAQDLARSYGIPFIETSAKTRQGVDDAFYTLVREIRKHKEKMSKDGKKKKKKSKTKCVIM
- Sequence (P62937 whole entry): as the sequence (P62937 whole entry) above
- method: Ras-Raf disruption/FRET/MOA assay (BRAF RBD, Cyclophilin A)
- Type: biochemical
- conditions-used: read-out: KRAS G13C FRET IC50
- Description: Compound is present in plate wells as a 10-point 3-fold dilution series starting at a final concentration of 30 μM. After incubation at 25° C. for 3 hours, a mixture of Anti-His Eu—W1024 and anti-GST allophycocyanin is then added to assay sample wells at final concentrations of 10 nM and 50 nM, respectively, and the reaction incubated for an additional 1.5 hours. […]

Answered cases to consult:
CCn1c(-c2cccnc2[C@H](C)OC)c2c3cc(ccc31)-c1cc(O)cc(c1)C[C@H](NC(=O)C(C)Cc1ccncc1)C(=O)N1CCC[C@H](N1)C(=O)OCC(C)(C)C2 (stereo partly drawn) | 100 to 1000 nM
CCn1c(-c2cccnc2[C@H](C)OC)c2c3cc(ccc31)-c1csc(n1)C[C@H](NC(=O)[C@H](C(C)C)N(C)C(=O)N1CCC1)C(=O)N1CCC[C@H](N1)C(=O)OCC(C)(C)C2 | 100 to 1000 nM

Exercise: I have this molecule here, CCn1c(-c2cnccc2COC)c2c3cc(ccc31)-c1cc(O)cc(c1)C[C@H](NC(=O)[C@H](C(C)C)N(C)C(=O)[C@H]1CCN(C(=O)CO)C1)C(=O)N1CCC[C@H](N1)C(=O)OCC(C)(C)C2 , and I need its recorded IC50.
Key: 100 to 1000 nM

Exercise: I have this molecule here, CCn1c(-c2cnccc2COC)c2c3cc(ccc31)-c1cc(O)cc(c1)C[C@H](NC(=O)[C@H](C(C)C)N(C)C(=O)[C@H]1CCN(C(=O)C(C)(C)N)C1)C(=O)N1CCC[C@H](N1)C(=O)OCC(C)(C)C2 , and I need its recorded IC50.
Key: 100 to 1000 nM

Exercise: I have this molecule here, CCn1c(-c2cccnc2[C@H](C)OC)c2c3cc(ccc31)-c1csc(n1)C[C@H](NC(=O)[C@H](C(C)C)N1CCCC1=O)C(=O)N1CCC[C@H](N1)C(=O)OCC(C)(C)C2 , and I need its recorded IC50.
Key: 1000 to 10000 nM

Exercise: I have this molecule here, CCn1c(-c2cccnc2[C@H](C)OC)c2c3cc(ccc31)-c1csc(n1)C[C@H](NC(=O)[C@H](C(C)C)N(C)C(=O)N1C[C@H]3COC[C@H]3C1)C(=O)N1CCC[C@H](N1)C(=O)OCC(C)(C)C2 , and I need its recorded IC50.
Key: 100 to 1000 nM

Exercise: I have this molecule here, CCn1c(-c2cccnc2[C@H](C)OC)c2c3cc(ccc31)-c1cc(O)cc(c1)C[C@H](NC(=O)[C@H](C(C)C)N(C)C(=O)[C@H]1CCCC[C@@H]1N)C(=O)N1CCC[C@H](N1)C(=O)OCC(C)(C)C2 , and I need its recorded IC50.
Key: 10 to 100 nM

Exercise: I have this molecule here, CCn1c(-c2cccnc2[C@H](C)OC)c2c3cc(ccc31)-c1cc(O)cc(c1)C[C@H](NC(=O)[C@H](C(C)C)N(C)C(=O)[C@H]1CCCC[C@H]1N)C(=O)N1CCC[C@H](N1)C(=O)OCC(C)(C)C2 , and I need its recorded IC50.
Key: 10 to 100 nM

Exercise: I have this molecule here, CCn1c(-c2cccnc2[C@H](C)OC)c2c3cc(ccc31)-c1csc(n1)C[C@H](NC(=O)[C@H](C(C)C)N(C)C(=O)N1CC3(CC(NCCOC)C3)C1)C(=O)N1CCC[C@H](N1)C(=O)OCC(C)(C)C2 , and I need its recorded IC50.
Key: 100 to 1000 nM
